Reference for the values: patent US20090042883A1

tested on: human chronic lymphocytic leukemia-derived MEC-1 cells; assay: Growth inhibition test on human chronic lymphocytic leukemia-derived MEC-1 cells (WST-1, % viability); assay type: cell-based; conditions: test compound 10 μmol/L, 72 hours, cells without test compound = 100%
READOUT_TYPE: Viability of tumor cells (% viability), Human chronic lymphocytic leukemia MEC-1 cells (%)
Provide the reading as a plain figure in %.

Completed entries (count: 2):
INSERT INTO assay_data (molecule, value_observed) VALUES
  ('CCc1c(O)cc(O)c(C(=O)c2ccc(OC)c(OC)c2)c1CC(=O)N(CCO)CCOC [Compound 56]', 4),
  ('CCc1c(O)cc(O)c(C(=O)c2ccc(OC(C)C)cc2)c1CC(=O)N(CCO)CCOC [Compound 124]', 4);

Below: the item to evaluate.
Would you mind telling me what Viability of tumor cells (% viability), Human chronic lymphocytic leukemia MEC-1 cells value was observed for CCc1c(O)cc(O)c(C(=O)c2ccc(OC)c(OC)c2)c1CC(=O)N1CCN(c2ccccc2)CC1 [Compound 41] ?
4
